Values compiled from PubChem BioAssay (NCI).

// values below are reported GI50
- Test system: OVCAR-4 ovarian
- ASSAY_EXPLANATION: NCI tumour cell line growth inhibition, 48 h
REPORTED_PROPERTY: GI50

1) Cn1cc(C2=C(c3cn(C)c4ccccc34)C(=O)NC2=O)c2ccccc21    5.01 µM
2) CC(=O)c1cc(C(=O)c2ccc3c(c2)Sc2ccccc2N3)c2cc(C)ccn12    1.29 µM
3) CC(=O)[CH-]C(=O)c1ccccc1.CC(=O)[CH-]C(=O)c1ccccc1.C[C@]12CCC(=O)C=C1CC[C@@H]1C2CC[C@@]2(C)C1CC[C@@H]2[O-].C[C@]12CCC(=O)C=C1CC[C@@H]1C2CC[C@@]2(C)C1CC[C@@H]2[O-].Cl.[Ti+4] (some centres undefined)    23.4 µM
4) O=C(Nc1ccccc1)c1cc(S(=O)(=O)Nc2nc3ccccc3o2)c(SCc2ccccc2)cc1Cl    33.8 µM
